Consider the following substances and their measured Kd readings.
target: GST-Als5-SS (Candida albicans, UniProt Q5A8T7); construct: made in house; host or cells: E. coli BL21(DE3); assay: biochemical; assay type: binding; conditions: Kd, 47 °C; N.B. = no binding observed; 0.02 mg/ml protein, excitation 295 nm, one-site saturation model; average of three independent measurements in duplicates
Sequence (Q5A8T7 whole entry): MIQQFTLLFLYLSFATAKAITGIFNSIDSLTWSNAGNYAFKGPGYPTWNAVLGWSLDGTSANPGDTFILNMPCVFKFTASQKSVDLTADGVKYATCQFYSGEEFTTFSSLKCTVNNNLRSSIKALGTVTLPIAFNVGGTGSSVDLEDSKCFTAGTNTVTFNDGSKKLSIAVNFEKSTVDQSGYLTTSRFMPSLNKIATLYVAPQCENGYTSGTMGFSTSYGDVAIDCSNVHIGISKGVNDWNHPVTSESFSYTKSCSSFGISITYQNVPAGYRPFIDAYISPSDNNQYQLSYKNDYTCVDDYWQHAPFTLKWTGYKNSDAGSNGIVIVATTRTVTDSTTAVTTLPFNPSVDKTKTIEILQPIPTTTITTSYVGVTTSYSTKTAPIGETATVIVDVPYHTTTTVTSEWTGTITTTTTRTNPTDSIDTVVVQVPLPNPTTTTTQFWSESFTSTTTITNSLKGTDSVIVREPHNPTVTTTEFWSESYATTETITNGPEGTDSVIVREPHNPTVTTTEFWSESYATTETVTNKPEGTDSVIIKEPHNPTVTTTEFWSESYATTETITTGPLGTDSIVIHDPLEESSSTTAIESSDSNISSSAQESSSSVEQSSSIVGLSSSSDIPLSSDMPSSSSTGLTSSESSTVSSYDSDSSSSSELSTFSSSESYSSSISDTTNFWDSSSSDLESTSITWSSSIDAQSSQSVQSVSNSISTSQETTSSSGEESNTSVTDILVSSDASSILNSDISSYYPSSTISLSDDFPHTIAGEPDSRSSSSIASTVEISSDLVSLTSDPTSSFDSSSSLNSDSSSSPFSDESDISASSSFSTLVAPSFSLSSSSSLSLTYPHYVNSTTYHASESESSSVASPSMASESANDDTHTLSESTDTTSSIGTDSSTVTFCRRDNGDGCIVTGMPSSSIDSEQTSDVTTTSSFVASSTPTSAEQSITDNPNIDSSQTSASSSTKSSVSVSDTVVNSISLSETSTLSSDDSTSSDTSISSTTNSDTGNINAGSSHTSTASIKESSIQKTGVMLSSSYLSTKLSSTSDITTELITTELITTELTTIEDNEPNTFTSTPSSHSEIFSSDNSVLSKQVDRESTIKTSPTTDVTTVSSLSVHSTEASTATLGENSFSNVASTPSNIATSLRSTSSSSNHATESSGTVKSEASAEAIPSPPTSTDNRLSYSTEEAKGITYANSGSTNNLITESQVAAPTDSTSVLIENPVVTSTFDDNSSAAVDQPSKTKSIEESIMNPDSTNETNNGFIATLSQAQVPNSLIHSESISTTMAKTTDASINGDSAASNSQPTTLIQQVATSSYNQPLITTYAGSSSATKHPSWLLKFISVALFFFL
Ends that are not written are not given here.
State the result as a value with its unit after it.

>  <substance>
KLRIPSV [KLRIPSV]

>  <Kd>
14 nM

$$$$

Would you kindly share the measured Kd for EHAHTPR [EHAHTPR] ?
25 nM

Also, AYKSLMT [AYKSLMT] please.
9 nM
